Tested on: mice
Protocol Summary: Electroconvulsive threshold test (MEST test)
Type: in vivo, mouse
Reported Conditions: dose 30 mg/kg i.p., 4 h before the test; value with 95 % confidence interval
Marks after values point to notes of the source that are not given here.
Parameter: CS50 (mA) (CI). Scope: all listed entries.

{"Compound": "O=C1CCC(=O)N1CN1CCN(c2cccc(C(F)(F)F)c2)CC1", "Measured Result": "14.01 (9.05–21.70)*** mA"}

Ask: Read the entry CC1CC(=O)N(CN2CCN(c3cccc(C(F)(F)F)c3)CC2)C1=O (stereo not shown) and write its reported CS50 (mA) (CI).
Result: 9.37 (5.47–16.07)* mA

Ask: Read the entry CC1CC(=O)N(CN2CCN(c3ccc(Cl)c(Cl)c3)CC2)C1=O (stereo not shown) and write its reported CS50 (mA) (CI).
Result: 14.27 (8.21–24.80)** mA

Ask: Read the entry O=C1CCC(=O)N1CN1CCN(c2ccc(Cl)c(Cl)c2)CC1 and write its reported CS50 (mA) (CI).
Result: 10.53 (8.06–13.77)**** mA

---

Parameter: Mutagenicity BB7 M.I. (mutagenic index). Scope: all listed entries.
Tested on: V. harveyi BB7
Protocol Summary: Vibrio harveyi mutagenicity assay, BB7 strain
Reported Conditions: 40 ng/ml; positive assay when M.I. ≥ 2
Provide a numeric answer; units are not to be included.

Ask: Read the entry CC1CC(=O)N(CN2CCN(c3cccc(C(F)(F)F)c3)CC2)C1=O (stereo not shown) and write its reported Mutagenicity BB7 M.I. (mutagenic index).
Result: 1.4

Ask: Read the entry CC1CC(=O)N(CN2CCN(c3ccc(Cl)c(Cl)c3)CC2)C1=O (stereo not shown) and write its reported Mutagenicity BB7 M.I. (mutagenic index).
Result: 1.5

Ask: Read the entry O=C1CCC(=O)N1CN1CCN(c2ccc(Cl)c(Cl)c2)CC1 and write its reported Mutagenicity BB7 M.I. (mutagenic index).
Result: 1.2

Ask: Read the entry O=C1CCC(=O)N1CN1CCN(c2cccc(C(F)(F)F)c2)CC1 and write its reported Mutagenicity BB7 M.I. (mutagenic index).
Result: 1.6

---

Parameter: Mutagenicity BB7XM number of revertants Mean ± SD. Scope: all listed entries.
Tested on: V. harveyi BB7XM
Protocol Summary: Vibrio harveyi mutagenicity assay, BB7XM strain
Reported Conditions: 40 ng/ml
Provide a numeric answer; units are not to be included.

Consider the reported Mutagenicity BB7XM number of revertants Mean ± SD for these compounds:
{"Compound": "CC1CC(=O)N(CN2CCN(c3cccc(C(F)(F)F)c3)CC2)C1=O (stereo not shown)", "Measured Result": 20}
{"Compound": "O=C1CCC(=O)N1CN1CCN(c2ccc(Cl)c(Cl)c2)CC1", "Measured Result": 9}
{"Compound": "O=C1CCC(=O)N1CN1CCN(c2cccc(C(F)(F)F)c2)CC1", "Measured Result": 19}

Ask: Read the entry CC1CC(=O)N(CN2CCN(c3ccc(Cl)c(Cl)c3)CC2)C1=O (stereo not shown) and write its reported Mutagenicity BB7XM number of revertants Mean ± SD.
Result: 14

---

Test system: V. harveyi BB7XM
Protocol Summary: Vibrio harveyi mutagenicity assay, BB7XM strain
Reported Conditions: 40 ng/ml; positive assay when M.I. ≥ 2
Parameter: Mutagenicity BB7XM M.I. (mutagenic index). Scope: all listed entries.
Provide a numeric answer; units are not to be included.

{"Compound": "O=C1CCC(=O)N1CN1CCN(c2cccc(C(F)(F)F)c2)CC1", "Measured Result": 1.6}
{"Compound": "CC1CC(=O)N(CN2CCN(c3ccc(Cl)c(Cl)c3)CC2)C1=O (stereo not shown)", "Measured Result": 1.2}
{"Compound": "CC1CC(=O)N(CN2CCN(c3cccc(C(F)(F)F)c3)CC2)C1=O (stereo not shown)", "Measured Result": 1.7}

Now for a further compound.
Ask: Read the entry O=C1CCC(=O)N1CN1CCN(c2ccc(Cl)c(Cl)c2)CC1 and write its reported Mutagenicity BB7XM M.I. (mutagenic index).
Result: 0.7

---

Parameter: Mutagenicity BB7 number of revertants Mean ± SD. Scope: all listed entries.
Test system: V. harveyi BB7
Protocol Summary: Vibrio harveyi mutagenicity assay, BB7 strain
Reported Conditions: 40 ng/ml

{"Compound": "CC1CC(=O)N(CN2CCN(c3ccc(Cl)c(Cl)c3)CC2)C1=O (stereo not shown)", "System Tested": "V. harveyi BB7", "Measured Result": "25 ± 4"}
{"Compound": "CC1CC(=O)N(CN2CCN(c3cccc(C(F)(F)F)c3)CC2)C1=O (stereo not shown)", "System Tested": "V. harveyi BB7", "Measured Result": "22 ± 3"}
{"Compound": "O=C1CCC(=O)N1CN1CCN(c2cccc(C(F)(F)F)c2)CC1", "System Tested": "V. harveyi BB7", "Measured Result": "25 ± 4"}

Ask: Read the entry O=C1CCC(=O)N1CN1CCN(c2ccc(Cl)c(Cl)c2)CC1 and write its reported Mutagenicity BB7 number of revertants Mean ± SD.
Result: 19 ± 2

---

Parameter: Antimutagenicity BB7 number of revertants Mean ± SD. Scope: all listed entries.
System: V. harveyi BB7
Protocol Summary: Vibrio harveyi antimutagenicity assay (vs NQNO), BB7 strain
Type: cell-based
Reported Conditions: test compound plus NQNO 40 ng/ml (NQNO line: mutagen only)
Provide a numeric answer; units are not to be included.

Consider the reported Antimutagenicity BB7 number of revertants Mean ± SD for these molecules:
{"Molecule": "CC1CC(=O)N(CN2CCN(c3cccc(C(F)(F)F)c3)CC2)C1=O (stereo not shown)", "Measured Result": 25}
{"Molecule": "CC1CC(=O)N(CN2CCN(c3ccc(Cl)c(Cl)c3)CC2)C1=O (stereo not shown)", "Measured Result": 28}
{"Molecule": "O=C1CCC(=O)N1CN1CCN(c2ccc(Cl)c(Cl)c2)CC1", "Measured Result": 32}

Ask: Read the entry O=C1CCC(=O)N1CN1CCN(c2cccc(C(F)(F)F)c2)CC1 and write its reported Antimutagenicity BB7 number of revertants Mean ± SD.
Result: 31
